Test system: Mus musculus
Experiment: Toxicity in mouse assessed as suppression of locomotion at 1 mg/kg, ip measured for 5 mins
Assay type: organism-based
Conditions: in vivo

{"columns": ["molecular_string", "Activity"],
 "data": [
  ["CCN1/C(=C/c2ccc3ccccc3[n+]2CC)C=Cc2ccccc21.[I-]", "Toxic"],
  ["CCN1/C(=C/c2ccc3cc(Br)ccc3[n+]2CC)C=Cc2ccccc21.[I-]", "Non-Toxic"],
  ["CCN1/C(=C/c2ccc3cc(I)ccc3[n+]2CC)C=Cc2ccccc21.[I-]", "Non-Toxic"]
]}

###

Listing of entries alongside the reported activity at 40 min, 10 µM.
Target: alpha1 adrenoceptor (Mus musculus, UniProt P97714+P97717+P97718)
Assay: Displacement of [3H]prazosin from alpha1 adrenoceptor in C57BL/6 mouse hippocampal homogenates assessed as remaining receptor bound [3H]prazosin levels at 10 uM after 40 mins by liquid scintillation counting method relative to control
Details: probe [3H]prazosin, read-out: Activity

{"columns": ["molecular_string", "assay_target", "value_units", "activity at 40 min, 10 µM"],
 "data": [
  ["CCN1/C(=C/c2ccc3cc(OC)ccc3[n+]2CC)C=Cc2ccccc21.[I-]", "alpha1 adrenoceptor (Mus musculus, UniProt P97714+P97717+P97718)", "%", 1.7],
  ["CCN1/C(=C/c2ccc3ccccc3[n+]2CC)C=Cc2ccccc21.[I-]", "alpha1 adrenoceptor (Mus musculus, UniProt P97714+P97717+P97718)", "%", 12.6],
  ["CCN1/C(=C/c2ccc3cc(Br)ccc3[n+]2CC)C=Cc2ccccc21.[I-]", "alpha1 adrenoceptor (Mus musculus, UniProt P97714+P97717+P97718)", "%", 1.3],
  ["CC(C)[n+]1ccc(/C=C2/C=Cc3ccccc3N2C)c2ccccc21.O=C([O-])C(F)(F)F", "alpha1 adrenoceptor (Mus musculus, UniProt P97714+P97717+P97718)", "%", 6.7],
  ["CCN1/C(=C/c2ccc3cc(I)ccc3[n+]2CC)C=Cc2ccccc21.[I-]", "alpha1 adrenoceptor (Mus musculus, UniProt P97714+P97717+P97718)", "%", -2.8],
  ["Cc1ccnc2ccccc12", "alpha1 adrenoceptor (Mus musculus, UniProt P97714+P97717+P97718)", "%", 3]
]}

Data provenance is ChEMBL document CHEMBL4118073.
